Recorded values, source the RNAGym collection of RNA variant scans (doi:10.7554/elife.80360).

As shown below, each of these variants has a reported self-cleavage value.
B1: Hairpin Ribozyme (parent)
chain: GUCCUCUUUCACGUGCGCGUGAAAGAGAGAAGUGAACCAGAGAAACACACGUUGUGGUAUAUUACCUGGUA

- Variants of: B1
- ASSAY_NOTES: self-cleavage, relative activity (ratio to wild type); higher = more cleavage; co-transcriptional

MUTATION_CODE	self-cleavage
U58G A59G	0.143
A43C C48G	0.0498
U33G A61G	0.229
A43U G51U	0.0946
A28C A31U	0.107
G56U A59U	0.171
U5C U62G	0.159
U5C G42C	0.327
C3A G54U	0.403
U14G C66A	0.0772
C18A G56U	0.196
A39G C66U	0.194
A28U A44U	0.0894
U53A U58G	0.603
C3G U5C	0.132
C37U A44G	0.112
A31G G40U	0.168
A43C C50G	0.143
C16U U52A	1.01
A45U A49G	0.165
A22U C37G	0.339
U5C G15C	0.469
A30U U67G	0.176
A41G C48G	0.121
A11U A49U	0.251
A43U G54A	0.128
C10A G51C	0.566
A22U G56A	0.147
A22C A59G	0.25
A24C A36U	0.556
U20C A43U	0.125
C38U U53G	0.431
U7C G27U	0.222
